B1: VH:VL chains; a variant is named by its letters at X, in order (parent)
chain 1: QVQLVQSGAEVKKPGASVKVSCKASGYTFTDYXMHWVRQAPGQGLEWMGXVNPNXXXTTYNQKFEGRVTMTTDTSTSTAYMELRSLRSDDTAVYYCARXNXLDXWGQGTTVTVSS
chain 2: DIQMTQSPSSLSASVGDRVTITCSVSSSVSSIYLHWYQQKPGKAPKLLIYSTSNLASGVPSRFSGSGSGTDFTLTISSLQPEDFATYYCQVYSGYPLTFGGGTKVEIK

variants of: B1; experiment: yeast display scFab, FACS + sequencing
measurement_label: non-specific binding call

Please review the following examples before continuing.
FRARSSGF; binds
DGGTGDVF; no binding
YRGRDSWD; binds
VRRRGAGD; binds
DAEGDDGA; no binding
FRGRGAWV; binds

Form field non-specific binding call, entry DEAKAAVD : binds

Form field non-specific binding call, entry DEGGTAGV : no binding

Form field non-specific binding call, entry ATGANAAV : no binding

Where these numbers come from: the emibetuzumab library of Makowski et al. (2022)
